test system: NCI-H727; experiment: relative viability (nuclei count vs DMSO), 5 days (fraction); higher = more cells survive; details: first compound 0.002 µM
assay_readout: relative viability
Write the number on its own, no unit after it.

compound: CCNC(=O)c1noc(-c2cc(C(C)C)c(O)cc2O)c1-c1ccc(CN2CCOCC2)cc1 [Luminespib] + CC(=O)Nc1cccc(-n2c(=O)n(C3CC3)c(=O)c3c(Nc4ccc(I)cc4F)n(C)c(=O)c(C)c32)c1 [Trametinib] (partner 0.02 µM)
experimental_system: NCI-H727
relative viability: 0.422
//
compound: CCNC(=O)c1noc(-c2cc(C(C)C)c(O)cc2O)c1-c1ccc(CN2CCOCC2)cc1 [Luminespib] + N=C(N)NC(=N)NCCc1ccccc1 [Phenformin] (partner 250 µM)
experimental_system: NCI-H727
relative viability: 0.564

Consider the compound CCNC(=O)c1noc(-c2cc(C(C)C)c(O)cc2O)c1-c1ccc(CN2CCOCC2)cc1 [Luminespib] + CC1(C)CCC(c2ccc(Cl)cc2)=C(CN2CCN(c3ccc(C(=O)NS(=O)(=O)c4ccc(N[C@H](CCN5CCOCC5)CSc5ccccc5)c(S(=O)(=O)C(F)(F)F)c4)cc3)CC2)C1 [Navitoclax] (partner 0.5 µM) tested on NCI-H727; state its relative viability. 0.43

Consider the compound CCNC(=O)c1noc(-c2cc(C(C)C)c(O)cc2O)c1-c1ccc(CN2CCOCC2)cc1 [Luminespib] + C[C@@H](Oc1cc(-c2cnn(C3CCNCC3)c2)cnc1N)c1c(Cl)ccc(F)c1Cl [Crizotinib] (partner 1 µM) tested on NCI-H727; state its relative viability. 0.757
